assay_explanation: ATG_GRE_CIS: Attagene CIS-FACTORIAL HepG2 Assay for human Glucocorticoid Response Elements (GRE) (AID 2282947)
run_parameters: HepG2 GRE cis-reporter, Attagene multiplex mRNA; actives raise or lower the signal
The source made the active and inactive calls. The calls were made as follows: active = hit-call score of the fitted dose curve at least 0.9, where 1 is the maximum; inactive = score below 0.9.
# output must be one of 1 for active, 0 for inactive

Consider the following illustrative entries.
{"compound": "O=[N+]([O-])c1ccc2c3c(cccc13)CC2", "class_label": 0}
{"compound": "CCC1(c2ccc(N)cc2)CCC(=O)NC1=O (stereo not drawn)", "class_label": 0}
{"compound": "CCOP(=S)(OCC)SCCS(=O)(=O)CC", "class_label": 0}
{"compound": "ClCC(Cl)CCl", "class_label": 0}

Called result for OCC(O)CCl (stereo not drawn)
0

And then Cc1ccccc1C(=O)Nc1cccc(OC(C)C)c1 , what is it?
0

And then Nc1ccc(-c2ccc(N)c(Cl)c2)cc1Cl , what is it?
0

And then O=CC=O , what is it?
0

And then ClC(Cl)=C(Cl)C(Cl)=C(Cl)Cl , what is it?
1

And then CC(C)C1CCC(Cc2ccc(Cl)cc2)C1(O)Cn1cncn1 (stereo not drawn) , what is it?
0

And then CCCCOCCOC(C)=O , what is it?
0

And then O=C(OC1CCCCC1)c1ccccc1C(=O)OC1CCCCC1 , what is it?
0

And then O=C(Nc1ccc2[nH]ccc2c1)c1cc2cc(F)ccc2n1Cc1cccc(F)c1 , what is it?
1

And then O=C1CCCN1 , what is it?
0

And then Nc1ccc(N=Nc2ccc(-c3ccc(N=Nc4c(S(=O)(=O)O)cc5cc(S(=O)(=O)O)c(N=Nc6ccccc6)c(O)c5c4N)cc3)cc2)c(N)c1 , what is it?
0

And then CCCCCCCCCl , what is it?
0

And then O=C(Cc1ccccc1)c1ccccc1 , what is it?
0

And then Cl/C=C/Cl , what is it?
0

====

assay_explanation: CCTE_Shafer_MEA_acute_network_burst_percentage: CCTE's Neural Acute Assay for Percentage of Network Bursts, Shafer Lab (AID 2284022);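 also: curves fitted for loss so actives lower network burst percentage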
Calls of active or inactive are those of the source. The calls were made as follows: active = hit-call score of the fitted dose curve at least 0.9, where 1 is the maximum; inactive = score below 0.9.
# output must be one of active, inactive

Consider the following illustrative entries.
{"compound_smiles": "COC(=O)Cc1ccccc1", "class_label": "inactive"}
{"compound_smiles": "O=C(O)C(F)(F)C(F)(F)C(F)(F)C(F)(F)C(F)(F)C(F)(F)C(F)(F)C(F)(F)C(F)(F)C(F)(F)F", "class_label": "inactive"}
{"compound_smiles": "C[C@]12CCC(=O)C[C@@H]1CC[C@@H]1[C@@H]2CC[C@]2(C)[C@@H](O)CC[C@@H]12", "class_label": "inactive"}
{"compound_smiles": "O=C(O)C(Cl)(Cl)Cl", "class_label": "inactive"}
{"compound_smiles": "CC(C)(OO)c1ccccc1", "class_label": "inactive"}

Called result for CCC(C)(C)c1ccc(O)c(C(C)(C)CC)c1
active

====

assay_explanation: TOX21_p53_BLA_p2_viability: Viability Assessment in the Tox21 HCT-116 p53 Agonism Beta-lactamase Assay, Phase 2 (AID 2283591);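 also: compound exposure lasted 16 h at 37 °C; actives lower the ATP signal meaning cytotoxicity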
Results filed as inconclusive are left out. Calls of active or inactive are those of the source. The calls were made as follows: active = hit-call score of the fitted dose curve at least 0.9, where 1 is the maximum; inconclusive = response in the unintended direction; inactive = score below 0.9.
metric: outcome

{"compound": "CC(=O)OC(c1ccccc1)C(Cl)(Cl)Cl (configuration not stated)", "outcome": "inactive"}
{"compound": "CC(C)OC(=O)Nc1ccccc1", "outcome": "inactive"}
{"compound": "CCOC(=O)/C=C(C)/C=C/C[C@@H](C)CCCC(C)C", "outcome": "inactive"}
{"compound": "CC(=O)c1cc(C(C)(C)C)cc2c1CCC2(C)C", "outcome": "inactive"}
{"compound": "CCCCCCCCSC(=O)Oc1cc(Cl)nnc1-c1ccccc1", "outcome": "inactive"}
{"compound": "Oc1cccc2cccnc12", "outcome": "inactive"}
{"compound": "c1ccc(N=NNc2ccccc2)cc1", "outcome": "inactive"}
{"compound": "Cc1cc(=O)[nH]o1", "outcome": "inactive"}
{"compound": "C=CC(=O)OCCCCCC(C)C", "outcome": "inactive"}
{"compound": "COP(=O)(OC)OC", "outcome": "inactive"}

Moving on to the next compound.
Which outcome reading was recorded for the compound C[C@H]1CCCC(=O)CCC/C=C/c2cc(O)cc(O)c2C(=O)O1 ?
inactive

====

Read-out: Cyclin D2 (CCND2), CCND2 (gene 894)
assay_explanation: LTEA_HepaRG_CCND2: Life Technologies and Expression Analysis (LTEA) Assay for Cyclin D2 (CCND2) using HepaRG (AID 2283449);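 also: CCND2 transcript measured by TaqMan qRT-PCR and normalised to three housekeeping genes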
run_parameters: mRNA level, 48 h; actives raise or lower the signal
Activity calls are given as the source filed them. How the source made its calls: active means hit-call score of the fitted dose curve at least 0.9, where 1 is the maximum; inactive means score below 0.9.
# output must be one of true (1) for active, false (0) for inactive

Consider the following illustrative entries.
{"molecule": "CCC(=O)C(CC(C)N(C)C)(c1ccccc1)c1ccccc1 (stereo unspecified)", "class_label": "false (0)"}
{"molecule": "O=C1C2(Cl)C3(Cl)C4(Cl)C(Cl)(Cl)C5(Cl)C3(Cl)C1(Cl)C5(Cl)C24Cl (stereo unspecified)", "class_label": "true (1)"}
{"molecule": "CC(C)(C)c1cc(O)ccc1O", "class_label": "false (0)"}

Called result for CC12CC1(C)C(=O)N(c1cc(Cl)cc(Cl)c1)C2=O (stereo unspecified)
false (0)

And then CN(C)N=O , what is it?
false (0)

And then COc1cc(-c2ccc(N)c(OC)c2)ccc1N , what is it?
false (0)

====

assay_explanation: BSK_BE3C_SRB: Viability Assessment in the BioMAP Diversity Plus: BE3C Assay (AID 2283028);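 also: measured 24 h after chemical dosing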
run_parameters: primary human bronchial epithelial cells
Active and inactive are the calls of the source. How the source made its calls: active means hit-call score of the fitted dose curve at least 0.9, where 1 is the maximum; inactive means score below 0.9.
# output must be one of active, inactive

Called result for O=Cc1cccc(Oc2ccccc2)c1
inactive

====

Read-out: Monokine induced gamma interferon (MIG), CXCL9 (gene 4283)
assay_explanation: BSK_hDFCGF_MIG: BioMAP Diversity Plus: hDFCGF Assay for Monokine induced gamma interferon (MIG) Biomarker Activity (AID 2283063)
run_parameters: primary human foreskin fibroblasts; actives raise or lower the signal
The source made the active and inactive calls. The calls were made as follows: active = hit-call score of the fitted dose curve at least 0.9, where 1 is the maximum; inactive = score below 0.9.
# output must be one of active, inactive

Consider the following illustrative entries.
{"compound_smiles": "Oc1cccc2cccnc12", "class_label": "active"}
{"compound_smiles": "COP(=S)(OC)Oc1ccc(S(=O)(=O)N(C)C)cc1", "class_label": "inactive"}
{"compound_smiles": "CCOP(=S)(OCC)Oc1nc(Cl)c(Cl)cc1Cl", "class_label": "inactive"}

Called result for O=[N+]([O-])c1ccc(O)c([N+](=O)[O-])c1
inactive

And then CC(C)CCCCCCOC(=O)c1ccccc1C(=O)OCCCCCCC(C)C , what is it?
inactive

And then O=S(=O)(c1ccc(Cl)cc1)c1ccc(Cl)cc1 , what is it?
inactive

====

assay_explanation: ATG_SREBP_CIS: Attagene CIS-FACTORIAL HepG2 Assay for human Sterol Regulatory Element Binding (SREBP) (AID 2282962)
run_parameters: HepG2 Attagene cis-factorial SREBP reporter, mRNA; actives raise or lower the signal
The source made the active and inactive calls. The calls were made as follows: active = hit-call score of the fitted dose curve at least 0.9, where 1 is the maximum; inactive = score below 0.9.
# output must be one of 1 (yes) (active), 0 (no) (inactive)

{"compound": "ClCc1ccccn1", "class_label": "0 (no)"}
{"compound": "COc1ccc(OC)c(C=O)c1", "class_label": "0 (no)"}
{"compound": "Fc1ccc(C2(Cn3cncn3)OC2c2ccccc2Cl)cc1 (stereo not drawn)", "class_label": "1 (yes)"}
{"compound": "CC(=[OH+])/C=C(/C)[O-].CC(=[OH+])/C=C(/C)[O-].CC(=[OH+])/C=C(/C)[O-].[Al]", "class_label": "0 (no)"}

Called result for N#CCCO
0 (no)

And then Oc1c(I)cc(I)cc1I , what is it?
0 (no)

And then Cc1cc(Cl)ccc1O[C@H](C)C(=O)O , what is it?
0 (no)

And then ClCC(Cl)CCl , what is it?
0 (no)

And then COc1ccc(C=O)cc1 , what is it?
0 (no)

And then C(=NC1CCCCC1)=NC1CCCCC1 , what is it?
1 (yes)

And then O=C(Cc1ccccc1)c1ccccc1 , what is it?
0 (no)

And then COP(=S)(OC)Oc1cc(Cl)c(Cl)cc1Cl , what is it?
0 (no)

And then CC(=O)OC(c1ccccc1)C(Cl)(Cl)Cl (stereo not drawn) , what is it?
0 (no)

And then CCOC(=O)CP(=O)(OCC)OCC , what is it?
0 (no)

And then Cc1ccc2ccccc2c1C , what is it?
0 (no)

And then COC(=O)c1sccc1S(=O)(=O)NC(=O)Nc1nc(C)nc(OC)n1 , what is it?
0 (no)

And then CCc1ccccc1C , what is it?
0 (no)

And then O=C(c1ccccc1)C(Cl)Cl , what is it?
1 (yes)

And then O=C(O)C(Cl)(Cl)Cl , what is it?
0 (no)

And then O=C1C2(Cl)C3(Cl)C4(Cl)C(Cl)(Cl)C5(Cl)C3(Cl)C1(Cl)C5(Cl)C24Cl (stereo not drawn) , what is it?
0 (no)

And then Cc1ccccc1N , what is it?
0 (no)

And then CCC1(c2ccc(N)cc2)CCC(=O)NC1=O (stereo not drawn) , what is it?
0 (no)

Data origin: PubChem BioAssay (EPA / NIEHS)
